# Target Or Test System: human factor Xa (Homo sapiens)
# Sequence (P00742 235-488 limits assumed): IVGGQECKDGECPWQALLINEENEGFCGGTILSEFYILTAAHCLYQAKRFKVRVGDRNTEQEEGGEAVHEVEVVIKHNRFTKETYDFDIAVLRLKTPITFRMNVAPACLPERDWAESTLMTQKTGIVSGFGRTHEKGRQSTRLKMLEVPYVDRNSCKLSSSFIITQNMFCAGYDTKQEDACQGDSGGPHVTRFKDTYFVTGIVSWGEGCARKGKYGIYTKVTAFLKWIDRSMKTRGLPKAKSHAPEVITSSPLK
# Sequence (P00742 41-179 partner limits assumed): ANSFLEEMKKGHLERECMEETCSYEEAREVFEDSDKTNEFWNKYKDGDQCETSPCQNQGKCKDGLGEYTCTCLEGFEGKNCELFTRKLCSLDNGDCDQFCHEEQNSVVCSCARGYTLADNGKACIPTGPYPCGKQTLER
pKi: −log10 of the molar value.
pKi values, listed per item
Reported Endpoint: pKi

[[record]]
compound = "CC(C)N1CCC(NC(=O)c2nn(Cc3cc(-c4ccc(Cl)s4)on3)c3ccc(C(=O)N4CCCOCC4)cc23)CC1"
reported_endpoint = "pKi"
measured_number = 7.92

[[record]]
compound = "CCOC(=O)OC(C)OC(=O)c1ccc2c(c1)c(C(=O)NC1CCN(C(C)C)CC1)nn2Cc1cc(-c2ccc(Cl)s2)on1 (stereo not shown)"
reported_endpoint = "pKi"
measured_number = 7.09

[[record]]
compound = "CC(C)N1CCC(NC(=O)c2nn(Cc3cc(-c4ccc(Cl)s4)on3)c3ccc(C(=O)O)cc23)CC1"
reported_endpoint = "pKi"
measured_number = 7.74

[[record]]
compound = "CC(C)N1CCC(NC(=O)c2nn(Cc3cc(-c4ccc(Cl)s4)on3)c3ccc(C(=O)N(C)CCO)cc23)CC1"
reported_endpoint = "pKi"
measured_number = 7.89

[[record]]
compound = "Cc1oc(=O)oc1COC(=O)c1ccc2c(c1)c(C(=O)NC1CCN(C(C)C)CC1)nn2Cc1cc(-c2ccc(Cl)s2)on1"
reported_endpoint = "pKi"
measured_number = 7.39

[[record]]
compound = "CC(C)N1CCC(NC(=O)c2nn(Cc3cc(-c4ccc(Cl)s4)on3)c3cccc(C#N)c23)CC1"
reported_endpoint = "pKi"
measured_number = 8.05

[[record]]
compound = "COC(=O)c1ccc2c(c1)c(C(=O)Nc1ccc(N3CCOCC3=O)cc1)nn2Cc1cc(-c2ccc(Cl)s2)on1"
reported_endpoint = "pKi"
measured_number = 8.05


----------
# Target Or Test System: human factor Xa (Homo sapiens)
Listed here are molecules together with their documented Ki.
Reported Endpoint: Ki

[[record]]
molecule = "O=C(Nc1ccc(-n2ccc(=O)cc2)cc1)c1nn(Cc2cc(-c3ccc(Cl)s3)on2)c2ccccc12 [Example 54]"
target_or_test_system = "human factor Xa (Homo sapiens)"
reported_endpoint = "Ki"
result = "52 nM"

[[record]]
molecule = "CC(C)N1CCC(NC(=O)c2nn(Cc3cc(-c4ccc(Cl)s4)on3)c3ccc(C(=O)NCCS(C)(=O)=O)cc23)CC1 [Example 13]"
target_or_test_system = "human factor Xa (Homo sapiens)"
reported_endpoint = "Ki"
result = "40 nM"

[[record]]
molecule = "CCOC(=O)CNC(=O)c1ccc2c(c1)c(C(=O)NC1CCN(C(C)C)CC1)nn2Cc1cc(-c2ccc(Cl)s2)on1 [Example 19]"
target_or_test_system = "human factor Xa (Homo sapiens)"
reported_endpoint = "Ki"
result = "26 nM"

[[record]]
molecule = "CC(C)N1CCC(NC(=O)c2nn(Cc3cc(-c4ccc(Cl)s4)on3)c3ccc(C(=O)NC(C)(CO)CO)cc23)CC1 [Example 24]"
target_or_test_system = "human factor Xa (Homo sapiens)"
reported_endpoint = "Ki"
result = "51 nM"

[[record]]
molecule = "CC(C)N1CCC(NC(=O)c2nn(Cc3cc(-c4ccc(Cl)s4)on3)c3ccccc23)CC1 [Example 8]"
target_or_test_system = "human factor Xa (Homo sapiens)"
reported_endpoint = "Ki"
result = "6 nM"

[[record]]
molecule = "O=C(Nc1ccc(C(=O)N2CCOCC2)cc1)c1nn(Cc2cc(-c3ccc(Cl)s3)on2)c2ccccc12 [Example 35]"
target_or_test_system = "human factor Xa (Homo sapiens)"
reported_endpoint = "Ki"
result = "530 nM"

